Measurement Protocol: The dissociation constant determined by fluorescence displacement assay
Numbered stars: 1 amine (or outer) side, 2 acyl side, 3 side chain; on linkers, the order of the positions; unused ones are H or OH. Square brackets hold non-standard residues; d marks the D form. Peptide text beside a SMILES is read from it. * marks the point of attachment. ξ: configuration not given here. X1 = CC(C)C[C@H](N[*:1])[C@@H](O)C[C@H](C(=O)[*:2])C(C)C; X2 = OC[C@H]1O[C@@H](O)[C@H](N*)[C@H](O)[C@@H]1O; NH(2-picolyl-N-oxide) = [O-][n+]1ccccc1CN*; NMeH = CN[C@@H](Cc1c[nH]cn1)C(=O)O; NHCH2(2-pyridyl) = c1ccc(CN*)nc1; Ile(3ξ) = CCC(C)[C@H](N)C(=O)O; NHC(CH2OH)3 = OCC(CO)(CO)N*; Boc = CC(C)(C)OC(=O)*; CO = O=C([*:1])[*:2]
Lab note: cut-off is 0.07 nM. Strictly less in Kd is criterion met. Exactly 0.07 nM or more is criterion not met.

compound="CC[C@H](C)[C@H](NC(=O)[C@@H](C[C@H](O)[C@H](CC(C)C)NC(=O)[C@H](Cc1c[nH]cn1)N(C)C(=O)[C@H](Cc1ccccc1)NC(=O)[C@@H]1CCCN1C(=O)NC(CO)(CO)CO)C(C)C)C(=O)NCc1ccccn1 ({NHC(CH2OH)3-CO}-PF[NMeH][X1]I-{NHCH2(2-pyridyl)})" answer_label="criterion not met"
compound=CC[C@H](C)[C@H](NC(=O)[C@@H](C[C@H](O)[C@H](CC(C)C)NC(=O)[C@H](Cc1c[nH]cn1)N(C)C(=O)[C@H](Cc1ccccc1)NC(=O)[C@@H]1CCCN1C(=O)OC(C)(C)C)C(C)C)C(=O)NCc1ccccn1 answer_label="criterion met"
compound="CCC(C)[C@H](NC(=O)[C@@H](C[C@H](O)[C@H](CC(C)C)NC(=O)[C@H](Cc1c[nH]cn1)N(C)C(=O)[C@H](Cc1ccccc1)NC(=O)[C@@H]1CCCN1C(=O)NC(CO)(CO)CO)C(C)C)C(=O)NCc1cccc[n+]1[O-] (some centres not stated) ({NHC(CH2OH)3-CO}-PF[NMeH][X1][Ile(3ξ)]-{NH(2-picolyl-N-oxide)})" answer_label="criterion met"
compound=CC[C@H](C)[C@H](NC(=O)[C@@H](C[C@H](O)[C@H](CC(C)C)NC(=O)[C@H](Cc1c[nH]cn1)NC(=O)[C@@H](Cc1ccccc1)NS(=O)(=O)c1cccc2c(N(C)C)cccc12)C(C)C)C(=O)NCc1ccccn1 answer_label="criterion met"
compound="CC[C@H](C)[C@H](NC(=O)[C@@H](C[C@H](O)[C@H](CC(C)C)NC(=O)[C@H](Cc1c[nH]cn1)N(C)C(=O)[C@H](Cc1ccccc1)NC(=O)[C@@H]1CCCN1C(=O)N[C@@H]1[C@H](O)[C@H](O)[C@@H](CO)O[C@H]1O)C(C)C)C(=O)NCc1cccc[n+]1[O-] ({X2-CO}-PF[NMeH][X1]I-{NH(2-picolyl-N-oxide)})" answer_label="criterion not met"
compound="CC[C@H](C)[C@H](NC(=O)[C@@H](C[C@H](O)[C@H](CC(C)C)NC(=O)[C@H](Cc1c[nH]cn1)N(C)C(=O)[C@H](Cc1ccccc1)NC(=O)[C@@H]1CCCN1C(=O)OC(C)(C)C)C(C)C)C(=O)NCc1cccc[n+]1[O-] (Boc-PF[NMeH][X1]I-{NH(2-picolyl-N-oxide)})" answer_label="criterion not met"
compound="CC[C@H](C)[C@H](NC(=O)[C@@H](C[C@H](O)[C@H](CC(C)C)NC(=O)[C@H](Cc1c[nH]cn1)N(C)C(=O)[C@H](Cc1ccccc1)NC(=O)[C@@H]1CCCN1C(=O)OC(C)(C)C)C(C)C)C(=O)NC(CO)(CO)CO (Boc-PF[NMeH][X1]I-{NHC(CH2OH)3})" answer_label="criterion met"
